systemName: T1, 4H346-bH
T1 chain: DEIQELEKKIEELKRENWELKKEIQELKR
testProtocol: two-hybrid library CCNG1;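 note: natural log of median RNA to DNA barcode read ratio; higher means stronger binding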
propertyLabel: interaction score
Just the number.

The reported value for DKNQELEKKIEELKRKIWELEKENQELER [4H3427-bH] in terms of interaction score is -1.08

The reported value for DKNQELEKEIEELERKIWELEKKNQELKR [4H3112-bH] in terms of interaction score is 0.584

The reported value for DKIQELKKEIEELKRKNWELEKEIQELER [4H2673-bH] in terms of interaction score is -0.803

The reported value for DEIQELEKEIEELKRKNWELEKKIQELKR [4H118-bH] in terms of interaction score is 0.654

The reported value for DKIQELKKKNEELKREIWELEKEIQELKR [4H3010-bH] in terms of interaction score is -0.345

The reported value for DKIAQLKQEIAELEQENAELKWEIAQLEQ [4H2585-bA] in terms of interaction score is 1.98

The reported value for DKIQELKKEIEELKREIWELEKENQELER [4H2627-bH] in terms of interaction score is -0.309

The reported value for DENQELKKKIEELERKIWELEKKNQELER [4H1831-bH] in terms of interaction score is 0.11

The reported value for DENAQLEQKIAELEQKIAELKWKNAQLKQ [4H1328-bA] in terms of interaction score is 0.114

The reported value for DENQELEKENEELEREIWELEKKIQELKR [4H1158-bH] in terms of interaction score is 0.268

The reported value for DKIQELKKENEELEREIWELKKKIQELKR [4H2702-bH] in terms of interaction score is 0.405

The reported value for DEIQELEKENEELERKIWELKKEIQELKR [4H170-bH] in terms of interaction score is -0.205

The reported value for DEIQELEKKIEELKRENWELKKEIQELKR [4H346-bH] in terms of interaction score is 0.99

The reported value for DENQELEKEIEELERKNWELKKEIQELER [4H1081-bH] in terms of interaction score is 0.118

The reported value for DKIQELKKEIEELERENWELKKEIQELKR [4H2586-bH] in terms of interaction score is 0.563

The reported value for DEIQELEKEIEELKRKIWELKKKNQELKR [4H112-bH] in terms of interaction score is 0.154
